Measured Parameter: IC50

Tested system AT1 receptor (Homo sapiens (Human), UniProt P30556); IC50 recorded for CN(CCCc1ccccc1)[C@H]1C[C@@H](C(=O)O)N(C(=O)C(c2ccccc2)c2ccccc2)C1 was > 10 µM

The compound COc1ccc2c(c1OCc1ccccc1)C[C@@H](C(=O)O)N(C(=O)C(c1ccccc1)c1ccccc1)C2 [PD-126,055, reference compound] on AT1 receptor (Homo sapiens (Human), UniProt P30556): IC50 was > 10 µM

====

Assign pKi to each entry below.
Measurement Target: AT1 receptor (Homo sapiens (Human))
Sequence (P30556 whole entry, species assumed): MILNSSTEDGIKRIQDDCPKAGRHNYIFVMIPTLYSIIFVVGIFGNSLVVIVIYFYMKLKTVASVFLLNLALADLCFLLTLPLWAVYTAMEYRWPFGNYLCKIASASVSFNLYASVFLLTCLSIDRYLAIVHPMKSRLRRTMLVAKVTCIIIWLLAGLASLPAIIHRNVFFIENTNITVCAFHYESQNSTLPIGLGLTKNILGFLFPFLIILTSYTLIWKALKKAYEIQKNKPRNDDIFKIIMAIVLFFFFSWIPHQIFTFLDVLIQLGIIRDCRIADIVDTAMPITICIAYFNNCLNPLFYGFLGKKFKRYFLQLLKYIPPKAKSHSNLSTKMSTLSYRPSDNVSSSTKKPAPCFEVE
pKi: −log10 of the molar value.

// COc1ccc2c(c1OCc1ccccc1)C[C@@H](C(=O)O)N(C(=O)C(c1ccccc1)c1ccccc1)C2 [PD-126,055, reference compound] : pKi value = < 5.00

Sample CN(CCCc1ccccc1)[C@H]1C[C@@H](C(=O)O)N(C(=O)C(c2ccccc2)c2ccccc2)C1 ; pKi observed: < 5.00

====

I'd appreciate it if you could supply pIC50 values for the items below.
# log scale: pIC50 equals minus log10 of the concentration in mol/L

O=C1NCC2(CCN([C@H]3C[C@@H](C(=O)O)N(C(=O)C(c4ccccc4)c4ccccc4)C3)CC2)C1c1ccccc1 (stereo partly shown) [Compound 65] on AT2 receptor (Homo sapiens (Human)) gives pIC50 = 5.79

Record O=C(O)[C@@H]1C[C@H](OCCCc2ccc(F)cc2)CN1C(=O)C(c1ccccc1)c1ccccc1 [Compound 104] ; system AT2 receptor (Homo sapiens (Human)); pIC50 = 5.88

The reported AT2 receptor (Homo sapiens (Human)) pIC50 of O=C(O)[C@@H]1C[C@H](N2CCCC2Cc2ccccc2)CN1C(=O)C(c1ccccc1)c1ccccc1 (single isomer, unassigned) [Compound 61-A] is 7.08

Observed pIC50, AT2 receptor (Homo sapiens (Human)), O=C(O)[C@@H]1C[C@H](N2CC[C@@H](c3ccccc3)C2)CN1C(=O)C(c1ccccc1)c1ccccc1 [Compound 86] : 6.09

For the compound O=C(O)[C@H]1[C@H](OCCCc2ccccc2)CN1C(=O)C(c1ccccc1)c1ccccc1 (mixture of isomers) [Compound 143] , the measured pIC50 on AT2 receptor (Homo sapiens (Human)) was 6.43

Summary: O=C(O)[C@@H]1C[C@H](N2CC[C@H](c3ccccc3)C2)CN1C(=O)C(c1ccccc1)c1ccccc1 [Compound 87] , AT2 receptor (Homo sapiens (Human)), pIC50 = 7.36

Reported AT2 receptor (Homo sapiens (Human)) pIC50 for item O=C(O)[C@@H]1C[C@H](c2sccc2-c2ccccc2)CN1C(=O)C(c1ccccc1)c1ccccc1 [Compound 107] was 6.34

====

Measurement Target: AT2 receptor (Homo sapiens (Human))
Sequence (P50052 whole entry, species assumed): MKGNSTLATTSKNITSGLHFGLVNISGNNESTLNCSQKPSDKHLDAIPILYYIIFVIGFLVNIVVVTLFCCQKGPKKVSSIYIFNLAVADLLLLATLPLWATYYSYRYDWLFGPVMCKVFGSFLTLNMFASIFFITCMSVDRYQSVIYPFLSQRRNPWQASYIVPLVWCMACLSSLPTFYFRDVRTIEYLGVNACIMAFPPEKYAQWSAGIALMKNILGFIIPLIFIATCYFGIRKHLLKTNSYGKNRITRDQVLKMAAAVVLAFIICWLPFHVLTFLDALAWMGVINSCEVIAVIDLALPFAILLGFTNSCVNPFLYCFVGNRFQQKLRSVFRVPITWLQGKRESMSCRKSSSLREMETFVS
pIC50: −log10 of the molar value.
// label = Condition met if pIC50 is not less than 7, otherwise Condition not met

Assess whether reported pIC50 for CS(=O)(=O)NC(=O)[C@@H]1C[C@H](OCCCc2ccccc2)CN1C(=O)C(c1ccccc1)c1ccccc1 sits at 7 or higher.
Condition not met

Please indicate if the recorded pIC50 for O=C(O)[C@@H]1C[C@H](CSCc2ccccc2)CN1C(=O)C(c1ccccc1)c1ccccc1 meets or exceeds 7.
Condition met

Test whether the compound O=C(O)[C@@H]1C[C@H](OCC#Cc2ccccc2)CN1C(=O)C(c1ccccc1)c1ccccc1 records pIC50 of 7 or higher.
Condition not met

Assess whether reported pIC50 for O=C(O)[C@@H]1C[C@H](n2nncc2-c2ccccc2)CN1C(=O)C(c1ccccc1)c1ccccc1 sits at 7 or higher.
Condition met

hey, is pIC50 for this one >= 7? CS(=O)(=O)N(CCCc1ccccc1)[C@H]1C[C@@H](C(=O)O)N(C(=O)C(c2ccccc2)c2ccccc2)C1
Condition not met

Assess whether reported pIC50 for O=C(O)[C@@H]1C[C@H](c2ncc(-c3ccccc3)o2)CN1C(=O)C(c1ccccc1)c1ccccc1 sits at 7 or higher.
Condition not met

Check the entry O=C(O)[C@@H]1[C@@H](OCCCc2ccccc2)CN1C(=O)C(c1ccccc1)c1ccccc1 (mixture of isomers) : does pIC50 equal or exceed 7?
Condition not met

Record O=C(O)[C@@H]1C[C@H](NCCc2ccccc2)CN1C(=O)C(c1ccccc1)c1ccccc1 ; criterion: pIC50 no lower than 7. Met?
Condition not met

Quick check: does COc1ccc(C#CCN(C)[C@H]2C[C@@H](C(=O)O)N(C(=O)C(c3ccccc3)c3ccccc3)C2)cc1C have pIC50 greater than or equal to 7?
Condition not met

Threshold query (pIC50 >= 7) on O=C(O)[C@@H]1C[C@H](N2C(=O)COC[C@@H]2Cc2ccccc2)CN1C(=O)C(c1ccccc1)c1ccccc1
Condition not met
